FYI, the data here is from paper PMC5540273.

System: MKNK1;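 also: KINOMEscan kinase panel screen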
Settings: concentration: 1 μM, replicates: in singlicate; n = 1
READOUT KIND: %Inh (%)
// units = %; emit number, no label

Fill blank: measured %Inh of the compound CCCCc1nn2ncccc2c1-c1ccnc(Nc2ccc(N3CCN(C)CC3)cc2)n1 is ____. 9

Any idea what its %Inh is? The compound is Cc1ccc(C)c(NC(=O)NC2CCN(c3ccnc(Nc4ccc(F)cc4)n3)C2)c1 (stereo not shown) 0

Give its %Inh value. Item: Cc1cccc(Nc2nc(N[C@H]3CCNC3)ncc2C(N)=O)c1.Cl 0

So what does the record say about %Inh for O=C(Nc1cccc(-c2nn3ccccc3c2-c2ccnc(Nc3cccc(C(F)(F)F)c3)n2)c1)c1c(F)cccc1F ? 0
